- Experimental system: recombinant rat GABAA receptor α3β3γ2 (Rattus norvegicus, UniProt P18508+P20236)
- Construct: expressed in transfected cells; host or cells: HEK-293
- Sequence (P20236 29-493): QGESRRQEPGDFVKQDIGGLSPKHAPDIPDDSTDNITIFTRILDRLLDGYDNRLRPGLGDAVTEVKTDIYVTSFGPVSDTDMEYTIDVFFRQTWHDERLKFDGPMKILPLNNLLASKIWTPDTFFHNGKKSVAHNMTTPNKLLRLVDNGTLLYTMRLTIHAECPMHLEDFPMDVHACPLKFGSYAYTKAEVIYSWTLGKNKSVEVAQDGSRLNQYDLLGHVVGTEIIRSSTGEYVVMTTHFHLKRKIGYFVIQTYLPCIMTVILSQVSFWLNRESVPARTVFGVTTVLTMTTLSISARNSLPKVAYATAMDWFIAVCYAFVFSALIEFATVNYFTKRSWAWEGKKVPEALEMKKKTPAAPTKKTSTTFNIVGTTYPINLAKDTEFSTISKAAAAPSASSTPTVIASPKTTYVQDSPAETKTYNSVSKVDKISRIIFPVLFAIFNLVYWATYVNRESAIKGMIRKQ
- Sequence (P63079 26-473 partner): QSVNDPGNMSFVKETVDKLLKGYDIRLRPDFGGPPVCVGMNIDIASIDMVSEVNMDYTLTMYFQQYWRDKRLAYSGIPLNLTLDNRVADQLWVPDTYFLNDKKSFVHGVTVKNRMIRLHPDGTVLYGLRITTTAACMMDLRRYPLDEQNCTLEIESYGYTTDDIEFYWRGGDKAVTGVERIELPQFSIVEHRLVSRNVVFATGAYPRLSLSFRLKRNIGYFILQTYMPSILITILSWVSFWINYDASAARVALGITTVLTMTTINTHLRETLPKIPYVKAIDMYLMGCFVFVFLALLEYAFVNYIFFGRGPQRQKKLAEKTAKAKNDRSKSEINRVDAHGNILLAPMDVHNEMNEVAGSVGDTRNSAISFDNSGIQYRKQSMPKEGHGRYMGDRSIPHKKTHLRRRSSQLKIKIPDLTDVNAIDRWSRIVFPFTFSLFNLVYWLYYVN
- Sequence (P18508 39-466): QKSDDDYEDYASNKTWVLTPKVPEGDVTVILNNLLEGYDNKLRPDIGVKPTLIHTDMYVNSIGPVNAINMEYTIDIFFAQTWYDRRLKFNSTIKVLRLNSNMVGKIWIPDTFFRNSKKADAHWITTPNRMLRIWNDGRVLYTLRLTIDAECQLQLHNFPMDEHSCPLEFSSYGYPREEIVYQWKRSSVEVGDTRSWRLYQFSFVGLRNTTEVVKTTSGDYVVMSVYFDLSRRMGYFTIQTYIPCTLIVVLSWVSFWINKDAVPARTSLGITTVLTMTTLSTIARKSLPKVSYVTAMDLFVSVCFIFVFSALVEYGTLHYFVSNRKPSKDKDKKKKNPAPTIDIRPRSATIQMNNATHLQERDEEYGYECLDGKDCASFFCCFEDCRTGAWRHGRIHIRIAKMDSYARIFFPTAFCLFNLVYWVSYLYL
- Test method notes: [3H]flunitrazepam radioligand displacement, α3β3γ2
- Assay type: binding
Catalogue of compounds with associated Ki
Provide only the numeric value, understood in nM.

compound="CCOC(=O)c1ncn2c1[C@@H](C)N=C(c1ccccc1F)c1cc(Br)ccc1-2 [compound 1-R]" observed_result=501
compound="CCOC(=O)c1ncn2c1[C@H](C)N=C(c1ccccc1F)c1cc(Br)ccc1-2 [compound 1-S]" observed_result=136
compound="C#Cc1ccc2c(c1)C(c1ccccc1)=N[C@@H](C)c1nnc(C)n1-2 [compound 2-S]" observed_result=656

query: Provide the reported Ki (system: recombinant rat GABAA receptor α3β3γ2 (Rattus norvegicus, UniProt P18508+P20236)) for C[C@@H]1N=C(c2ccccc2)c2cc(Br)ccc2NC1=O [compound 3-S]
result: 102
